Target: ABL1 (Homo sapiens (Human), UniProt P00519)
Sequence (P00519 whole entry, species assumed): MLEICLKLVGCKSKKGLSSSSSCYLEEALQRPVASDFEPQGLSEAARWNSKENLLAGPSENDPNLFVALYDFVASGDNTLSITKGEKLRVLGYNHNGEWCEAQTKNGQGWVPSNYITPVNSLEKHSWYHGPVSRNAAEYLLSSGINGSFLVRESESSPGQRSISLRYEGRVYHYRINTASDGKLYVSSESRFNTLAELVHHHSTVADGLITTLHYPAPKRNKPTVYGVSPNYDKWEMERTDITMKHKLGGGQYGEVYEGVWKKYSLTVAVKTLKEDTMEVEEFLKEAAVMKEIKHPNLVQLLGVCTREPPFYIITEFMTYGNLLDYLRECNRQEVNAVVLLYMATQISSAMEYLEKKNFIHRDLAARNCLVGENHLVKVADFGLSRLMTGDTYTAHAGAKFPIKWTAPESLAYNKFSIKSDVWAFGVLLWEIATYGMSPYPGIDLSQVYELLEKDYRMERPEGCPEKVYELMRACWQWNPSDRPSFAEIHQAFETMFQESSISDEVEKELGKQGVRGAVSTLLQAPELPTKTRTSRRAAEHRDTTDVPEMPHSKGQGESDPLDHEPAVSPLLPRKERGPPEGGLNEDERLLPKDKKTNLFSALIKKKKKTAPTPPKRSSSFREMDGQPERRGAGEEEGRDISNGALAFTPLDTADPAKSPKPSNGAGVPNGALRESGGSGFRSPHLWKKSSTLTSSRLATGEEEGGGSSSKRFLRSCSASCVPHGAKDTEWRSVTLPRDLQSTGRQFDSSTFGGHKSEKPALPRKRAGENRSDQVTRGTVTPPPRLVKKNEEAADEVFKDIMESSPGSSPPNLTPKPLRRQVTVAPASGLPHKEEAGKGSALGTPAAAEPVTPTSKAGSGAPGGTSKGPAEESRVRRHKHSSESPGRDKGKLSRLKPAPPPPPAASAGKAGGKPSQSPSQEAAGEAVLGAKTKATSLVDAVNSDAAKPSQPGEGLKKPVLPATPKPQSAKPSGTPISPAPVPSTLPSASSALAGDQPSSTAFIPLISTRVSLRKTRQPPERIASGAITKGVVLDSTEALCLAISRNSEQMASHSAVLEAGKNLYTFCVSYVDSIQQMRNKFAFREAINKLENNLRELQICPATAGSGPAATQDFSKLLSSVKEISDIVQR
endpoint: pIC50
Give bare numbers, as −log10 of the molar value.

Provide the reported pIC50 (system: ABL1 (Homo sapiens (Human), UniProt P00519)) for `COc1cc(Oc2ccccn2)ccc1-c1ccc2ncc3ncn(-c4ccc(CC#N)cc4)c3c2c1` 7.70

---

Hi there, I'd appreciate the recorded IC50 for every entry that follows.
Target: UniProt:Q02750
Sequence (Q02750 whole entry): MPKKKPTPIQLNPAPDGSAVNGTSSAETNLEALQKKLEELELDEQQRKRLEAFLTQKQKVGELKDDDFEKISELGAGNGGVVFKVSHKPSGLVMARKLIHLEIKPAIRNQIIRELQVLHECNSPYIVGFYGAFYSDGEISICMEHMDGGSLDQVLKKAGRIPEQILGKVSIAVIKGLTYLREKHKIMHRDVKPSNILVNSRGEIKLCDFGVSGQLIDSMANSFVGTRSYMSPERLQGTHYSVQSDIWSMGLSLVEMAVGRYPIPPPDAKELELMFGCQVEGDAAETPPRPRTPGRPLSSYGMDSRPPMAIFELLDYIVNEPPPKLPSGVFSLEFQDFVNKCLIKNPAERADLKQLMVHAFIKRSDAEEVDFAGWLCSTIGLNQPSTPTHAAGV
Experiment: biochemical
Could you write the number and then its unit?

Cc1nc2cnc3cc(F)c(-c4ccc(Oc5ncccn5)cc4Cl)cc3c2n1[C@@H]1CCN(C(=O)CO)C[C@H]1F
138 nM

We next turn to a different compound, shown below.
Report IC50, nothing else, for this compound: `Cc1nc2cnc3cc(F)c(-c4ccc(Oc5ncccn5)cc4Cl)cc3c2n1[C@H]1CCN(C(=O)CO)C[C@@H]1F` 5 nM

---

Biological target: LCK (Homo sapiens (Human), UniProt P06239)
Sequence (P06239 whole entry, species assumed): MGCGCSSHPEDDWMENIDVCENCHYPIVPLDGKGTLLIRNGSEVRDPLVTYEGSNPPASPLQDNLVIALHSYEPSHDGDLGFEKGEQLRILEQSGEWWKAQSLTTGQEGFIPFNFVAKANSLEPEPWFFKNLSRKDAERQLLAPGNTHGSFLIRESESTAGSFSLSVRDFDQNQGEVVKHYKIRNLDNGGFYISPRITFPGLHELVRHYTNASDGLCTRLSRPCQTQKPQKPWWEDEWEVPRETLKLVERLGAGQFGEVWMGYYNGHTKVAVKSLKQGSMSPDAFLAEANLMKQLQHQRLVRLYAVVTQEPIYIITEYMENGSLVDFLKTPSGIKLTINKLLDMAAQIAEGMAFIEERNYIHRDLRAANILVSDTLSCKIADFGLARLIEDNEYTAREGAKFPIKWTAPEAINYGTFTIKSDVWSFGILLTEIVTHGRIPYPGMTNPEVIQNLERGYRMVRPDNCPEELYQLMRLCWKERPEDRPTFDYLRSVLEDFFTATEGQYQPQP
endpoint: pIC50
Answers are plain numbers, as −log10 of the molar value.

Identify the reported pIC50 for the following entry. COc1cc(Oc2ccccn2)ccc1-c1ccc2ncc3ncn(-c4ccc(CC#N)cc4)c3c2c1 [compound (B)] 8.15

---

Molecular target: UniProt:P16234
Sequence (P16234 24-1089, species assumed): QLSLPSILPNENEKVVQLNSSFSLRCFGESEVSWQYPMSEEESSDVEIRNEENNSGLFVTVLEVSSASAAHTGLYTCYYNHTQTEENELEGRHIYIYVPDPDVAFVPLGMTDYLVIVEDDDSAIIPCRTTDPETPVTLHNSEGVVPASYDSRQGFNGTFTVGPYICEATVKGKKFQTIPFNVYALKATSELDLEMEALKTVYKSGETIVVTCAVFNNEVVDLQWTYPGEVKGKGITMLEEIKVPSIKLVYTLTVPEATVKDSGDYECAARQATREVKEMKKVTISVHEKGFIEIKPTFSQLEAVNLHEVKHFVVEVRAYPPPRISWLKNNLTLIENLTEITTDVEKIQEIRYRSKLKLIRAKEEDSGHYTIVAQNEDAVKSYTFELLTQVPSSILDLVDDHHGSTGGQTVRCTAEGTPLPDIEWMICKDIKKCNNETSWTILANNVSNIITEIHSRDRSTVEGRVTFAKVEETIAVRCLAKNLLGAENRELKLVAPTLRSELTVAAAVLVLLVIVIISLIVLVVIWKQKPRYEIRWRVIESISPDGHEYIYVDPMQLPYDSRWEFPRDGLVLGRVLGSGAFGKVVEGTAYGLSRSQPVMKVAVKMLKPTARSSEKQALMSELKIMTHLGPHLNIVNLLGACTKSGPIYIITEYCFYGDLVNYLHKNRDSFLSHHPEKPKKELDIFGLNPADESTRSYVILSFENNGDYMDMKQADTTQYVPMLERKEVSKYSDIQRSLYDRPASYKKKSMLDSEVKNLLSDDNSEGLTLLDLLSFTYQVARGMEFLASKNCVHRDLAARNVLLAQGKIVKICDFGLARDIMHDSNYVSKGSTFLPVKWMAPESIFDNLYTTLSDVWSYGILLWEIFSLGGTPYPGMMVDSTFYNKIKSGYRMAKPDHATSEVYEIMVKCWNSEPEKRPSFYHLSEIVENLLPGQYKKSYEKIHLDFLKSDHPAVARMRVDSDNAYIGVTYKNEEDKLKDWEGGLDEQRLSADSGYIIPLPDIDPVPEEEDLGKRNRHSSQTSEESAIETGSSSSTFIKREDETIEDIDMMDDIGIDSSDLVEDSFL
endpoint: pIC50
Numbers only, as −log10 of the molar value.

Identify measured pIC50 corresponding to `COc1cc(Oc2ccccn2)ccc1-c1ccc2ncc3ncn(-c4ccc(CC#N)cc4)c3c2c1` 7.30
